- measurement_description: Solubility assessment of Compound I Form A in solvents and solvent mixtures (visual observation)
- Format: physicochemical
- assay_context: (1:0.1) 2-butanone:TFE, organic solvent or mixture, thermodynamic from solid, (1:0.1) 2-Butanone:TFE; ambient temperature; reported values <= actual solubility, approximate; read-out: Solubility
property_measured: solubility (mg/mL)
Numbers only here, please. The scale is mg/mL.

**Q:** Please give the measured solubility for this molecule: C/C=C1\NC(=O)[C@H]2CSSCC/C=C/[C@H](CC(=O)N[C@H](C(C)C)C(=O)N2)OC(=O)[C@H](C(C)C)NC1=O [Form A, romidepsin]
**A:** 20.6

---

- measurement_description: Solubility assessment of Compound I Form A in solvents and solvent mixtures (visual observation)
- Format: physicochemical
- assay_context: (4.5:3) isopropyl ether:ethanol, organic solvent or mixture, thermodynamic from solid, (4.5:3) Isopropyl Ether:Ethanol; ambient temperature; reported values <= actual solubility, approximate; read-out: Solubility
property_measured: solubility (µg/mL)
Reply with just the number (in µg/mL).

**Q:** # get_value(readout='solubility', item= C/C=C1\NC(=O)[C@H]2CSSCC/C=C/[C@H](CC(=O)N[C@H](C(C)C)C(=O)N2)OC(=O)[C@H](C(C)C)NC1=O [Form A, romidepsin] )
**A:** 6800

---

- measurement_description: Solubility assessment of Compound I Form A in solvents and solvent mixtures (visual observation)
- Assay type: physicochemical
- assay_context: (1:0.5) dioxane:acetone, organic solvent or mixture, thermodynamic from solid, (1:0.5) Dioxane:Acetone; ambient temperature; reported values <= actual solubility, approximate; read-out: Solubility
property_measured: solubility (mg/mL)
Kindly provide the numeric value in mg/mL only, without the unit symbol.

**Q:** Fill in: solubility of C/C=C1\NC(=O)[C@H]2CSSCC/C=C/[C@H](CC(=O)N[C@H](C(C)C)C(=O)N2)OC(=O)[C@H](C(C)C)NC1=O [Form A, romidepsin] is ___
**A:** 13.3

---

- measurement_description: Solubility assessment of Compound I Form A in solvents and solvent mixtures (visual observation)
- Type: physicochemical
- assay_context: (1:0.2) ethanol:TFE, organic solvent or mixture, thermodynamic from solid, (1:0.2) Ethanol:TFE; ambient temperature; reported values <= actual solubility, approximate; read-out: Solubility
property_measured: solubility
# number then unit; no other words

**Q:** Data request, read-out solubility, for C/C=C1\NC(=O)[C@H]2CSSCC/C=C/[C@H](CC(=O)N[C@H](C(C)C)C(=O)N2)OC(=O)[C@H](C(C)C)NC1=O [Form A, romidepsin]
**A:** 16.3 mg/mL

---

- measurement_description: Solubility assessment of Compound I Form A in solvents and solvent mixtures (visual observation)
- Assay type: physicochemical
- assay_context: (1:1) ethanol/IPA, 70 °C, organic solvent or mixture, thermodynamic from solid, (1:1) Ethanol/IPA; hot plate set to 70° C.; reported values <= actual solubility, approximate; read-out: Solubility
property_measured: solubility (mg/mL)
// note: answer is a bare numeric in mg/mL

**Q:** State the recorded solubility for this entry: C/C=C1\NC(=O)[C@H]2CSSCC/C=C/[C@H](CC(=O)N[C@H](C(C)C)C(=O)N2)OC(=O)[C@H](C(C)C)NC1=O [Form A, romidepsin]
**A:** 28

---

- measurement_description: Solubility assessment of Compound I Form A in solvents and solvent mixtures (visual observation)
- Type: physicochemical
- assay_context: chloroform, organic solvent or mixture, thermodynamic from solid, Chloroform; ambient temperature; reported values <= actual solubility, approximate; read-out: Solubility
property_measured: solubility

**Q:** Tell me the measured solubility of C/C=C1\NC(=O)[C@H]2CSSCC/C=C/[C@H](CC(=O)N[C@H](C(C)C)C(=O)N2)OC(=O)[C@H](C(C)C)NC1=O [Form A, romidepsin] , please.
**A:** 26.5 mg/mL

---

- measurement_description: Solubility assessment of Compound I Form A in solvents and solvent mixtures (visual observation)
- Format: physicochemical
- assay_context: majority of the solvents and solvent combinations tested, organic solvent or mixture, thermodynamic from solid, majority of solvent and solvent combinations tested; read-out: moderate solubility
property_measured: solubility

**Q:** # query: solubility of entry C/C=C1\NC(=O)[C@H]2CSSCC/C=C/[C@H](CC(=O)N[C@H](C(C)C)C(=O)N2)OC(=O)[C@H](C(C)C)NC1=O [Form A, romidepsin]
**A:** > 10000 µg/mL

---

- measurement_description: Solubility assessment of Compound I Form A in solvents and solvent mixtures (visual observation)
- Assay type: physicochemical
- assay_context: (0.1:0.1) TFE:DCM, organic solvent or mixture, thermodynamic from solid, (0.1:0.1) TFE:DCM; ambient temperature; reported values <= actual solubility, approximate; read-out: Solubility
property_measured: solubility (mg/mL)
Enter your answer as a number in mg/mL; do not include the unit.

**Q:** State the recorded solubility for this entry: C/C=C1\NC(=O)[C@H]2CSSCC/C=C/[C@H](CC(=O)N[C@H](C(C)C)C(=O)N2)OC(=O)[C@H](C(C)C)NC1=O [Form A, romidepsin]
**A:** 97

---

- measurement_description: Solubility assessment of Compound I Form A in solvents and solvent mixtures (visual observation)
- Type: physicochemical
- assay_context: (1:0.2) acetonitrile (ACN):TFE, organic solvent or mixture, thermodynamic from solid, (1:0.2) Acetonitrile (ACN):TFE; ambient temperature; reported values <= actual solubility, approximate; read-out: Solubility
property_measured: solubility (mg/mL)
Express it in mg/mL; write the number only.

**Q:** Request the reported solubility associated with C/C=C1\NC(=O)[C@H]2CSSCC/C=C/[C@H](CC(=O)N[C@H](C(C)C)C(=O)N2)OC(=O)[C@H](C(C)C)NC1=O [Form A, romidepsin]
**A:** 17.9

---

- measurement_description: Solubility assessment of Compound I Form A in solvents and solvent mixtures (visual observation)
- Type: physicochemical
- assay_context: (1.5:1) heptane:DCM, 60 °C, organic solvent or mixture, thermodynamic from solid, (1.5:1) Heptane:DCM; hot plate set to 60° C.; reported values <= actual solubility, approximate; read-out: Solubility
property_measured: solubility (µg/mL)
Express it in µg/mL; write the number only.

**Q:** Could you tell me which solubility is on file for C/C=C1\NC(=O)[C@H]2CSSCC/C=C/[C@H](CC(=O)N[C@H](C(C)C)C(=O)N2)OC(=O)[C@H](C(C)C)NC1=O [Form A, romidepsin] ?
**A:** 8000

---

- measurement_description: Solubility assessment of Compound I Form A in solvents and solvent mixtures (visual observation)
- Type: physicochemical
- assay_context: (1.5:0.8) ethyl acetate:acetone, organic solvent or mixture, thermodynamic from solid, (1.5:0.8) Ethyl Acetate:Acetone; ambient temperature; reported values <= actual solubility, approximate; read-out: Solubility
property_measured: solubility (µg/mL)
Give the number; µg/mL is assumed, so skip it.

**Q:** What solubility value was documented for this compound, C/C=C1\NC(=O)[C@H]2CSSCC/C=C/[C@H](CC(=O)N[C@H](C(C)C)C(=O)N2)OC(=O)[C@H](C(C)C)NC1=O [Form A, romidepsin] ?
**A:** 8900

---

- measurement_description: Solubility assessment of Compound I Form A in solvents and solvent mixtures (visual observation)
- Type: physicochemical
- assay_context: acetone, organic solvent or mixture, thermodynamic from solid, Acetone; ambient temperature; reported values <= actual solubility, approximate; read-out: Solubility
property_measured: solubility

**Q:** Bench note: what solubility did C/C=C1\NC(=O)[C@H]2CSSCC/C=C/[C@H](CC(=O)N[C@H](C(C)C)C(=O)N2)OC(=O)[C@H](C(C)C)NC1=O [Form A, romidepsin] show?
**A:** 22.4 mg/mL

---

- measurement_description: Solubility assessment of Compound I Form A in solvents and solvent mixtures (visual observation)
- Type: physicochemical
- assay_context: isopropanol (IPA), organic solvent or mixture, thermodynamic from solid, Isopropanol (IPA); ambient temperature; reported values <= actual solubility, approximate; read-out: Solubility
property_measured: solubility

**Q:** Tell me the measured solubility of C/C=C1\NC(=O)[C@H]2CSSCC/C=C/[C@H](CC(=O)N[C@H](C(C)C)C(=O)N2)OC(=O)[C@H](C(C)C)NC1=O [Form A, romidepsin] , please.
**A:** 4600 µg/mL

---

- measurement_description: Solubility assessment of Compound I Form A in solvents and solvent mixtures (visual observation)
- Assay type: physicochemical
- assay_context: (1:3) ethanol/IPA, 70 °C, organic solvent or mixture, thermodynamic from solid, (l:3) Ethanol/IPA; hot plate set to 70° C.; reported values <= actual solubility, approximate; read-out: Solubility
property_measured: solubility (µg/mL)
Kindly answer with a numeric value in µg/mL, unit omitted.

**Q:** Quick one: solubility of C/C=C1\NC(=O)[C@H]2CSSCC/C=C/[C@H](CC(=O)N[C@H](C(C)C)C(=O)N2)OC(=O)[C@H](C(C)C)NC1=O [Form A, romidepsin] ?
**A:** 10000
